AC50 by entry:
tgt: Alpha-2B adrenergic receptor (Homo sapiens, UniProt P18089)
Sequence (P18089 whole entry): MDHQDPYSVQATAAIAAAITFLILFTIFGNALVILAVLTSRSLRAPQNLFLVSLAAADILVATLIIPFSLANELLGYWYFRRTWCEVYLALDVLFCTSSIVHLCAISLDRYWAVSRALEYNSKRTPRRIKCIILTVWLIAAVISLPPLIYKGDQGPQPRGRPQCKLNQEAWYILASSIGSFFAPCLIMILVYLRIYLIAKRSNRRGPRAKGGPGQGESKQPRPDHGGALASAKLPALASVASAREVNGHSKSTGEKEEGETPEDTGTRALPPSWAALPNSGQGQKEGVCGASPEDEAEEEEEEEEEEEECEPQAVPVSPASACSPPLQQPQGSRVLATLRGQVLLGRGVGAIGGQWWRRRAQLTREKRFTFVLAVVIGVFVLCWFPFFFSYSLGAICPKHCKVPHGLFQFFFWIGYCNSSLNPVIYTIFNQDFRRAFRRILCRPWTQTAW

# example entries with known answers
{"compound": "CCCN(CCC)C(=O)Cc1c(-c2ccc(Cl)cc2)nc2ccc(Cl)cn12", "tgt": "Alpha-2B adrenergic receptor (Homo sapiens, UniProt P18089)", "measurement.name": "AC50", "reported.measurement": "> 30 µM"}
{"compound": "CCCCCCCCCCCCCCCCCCCCCC(=O)Nc1ccn([C@@H]2O[C@H](CO)[C@@H](O)[C@@H]2O)c(=O)n1", "tgt": "Alpha-2B adrenergic receptor (Homo sapiens, UniProt P18089)", "measurement.name": "AC50", "reported.measurement": "> 30 µM"}
{"compound": "CCN(CC)CCN1C(=O)CN=C(c2ccccc2F)c2cc(Cl)ccc21", "tgt": "Alpha-2B adrenergic receptor (Homo sapiens, UniProt P18089)", "measurement.name": "AC50", "reported.measurement": "> 10 µM"}
{"compound": "C=C[C@@]1(C)CC(=O)[C@]2(O)[C@@]3(C)[C@@H](O)CCC(C)(C)[C@@H]3[C@H](O)[C@H](OC(C)=O)[C@@]2(C)O1", "tgt": "Alpha-2B adrenergic receptor (Homo sapiens, UniProt P18089)", "measurement.name": "AC50", "reported.measurement": "> 30 µM"}
{"compound": "C[C@@H](NCCCc1cccc(C(F)(F)F)c1)c1cccc2ccccc12", "tgt": "Alpha-2B adrenergic receptor (Homo sapiens, UniProt P18089)", "measurement.name": "AC50", "reported.measurement": "> 30 µM"}

AC50 for Alpha-2B adrenergic receptor (Homo sapiens, UniProt P18089) with input C=CCNc1nc(NCC=C)nc(N2CCN(C(c3ccc(F)cc3)c3ccc(F)cc3)CC2)n1 equals > 30 µM

CN(C)CCc1c[nH]c2ccc(Cn3cncn3)cc12 on Alpha-2B adrenergic receptor (Homo sapiens, UniProt P18089) gives AC50 = > 30 µM

The compound CC12CC3CC(C)(C1)CC(N)(C3)C2 [MEMANTINE] on Alpha-2B adrenergic receptor (Homo sapiens, UniProt P18089): AC50 was > 10 µM

Sample CCC(C)C(CC)C(N)=O (stereo not drawn) [VALNOCTAMIDE] , system: Alpha-2B adrenergic receptor (Homo sapiens, UniProt P18089). Its AC50 is > 30 µM

Assay Alpha-2B adrenergic receptor (Homo sapiens, UniProt P18089), sample Clc1ccc(C(Cn2ccnc2)OCc2ccsc2Cl)c(Cl)c1 (stereo not drawn) , AC50 read: > 30 µM

Form: item CC(C)c1nc(N(C)S(C)(=O)=O)nc(-c2ccc(F)cc2)c1/C=C/[C@@H](O)C[C@@H](O)CC(=O)O ; test system Alpha-2B adrenergic receptor (Homo sapiens, UniProt P18089); AC50: > 30 µM

Log: Alpha-2B adrenergic receptor (Homo sapiens, UniProt P18089), compound CCC(=O)O[C@]1(C(=O)SCF)[C@H](C)C[C@H]2[C@@H]3C[C@H](F)C4=CC(=O)C=C[C@]4(C)[C@@]3(F)[C@@H](O)C[C@@]21C [FLUTICASONE PROPIONATE] , AC50 = > 30 µM

Record CC1=C(C)C(=O)C(C(CCCCCC(=O)O)c2ccccc2)=C(C)C1=O (stereo not drawn) / Alpha-2B adrenergic receptor (Homo sapiens, UniProt P18089), AC50 recorded as > 30 µM
